MEASUREMENT PROTOCOL: method code SF, from Rulke, H.; Friedel, A.; Martin, E.; Kottke, K.; Grafe, I.; Kuhmstedt, H. (1991). Investigations on the acidity ond partition properties of 1-phenyl-5-mercaptotetrazoles. Pharmazie, 46(6)456-457.
QUANTITY NAME: logP

Observe how each entry below is paired with its result.
May I ask what logP has been recorded for O=[N+]([O-])c1ccc(-n2nn[nH]c2=S)cc1 ? 1.99

Try the molecule S=c1[nH]nnn1-c1ccc(Cl)c(Cl)c1 2.68

Try the molecule S=c1[nH]nnn1-c1cccc(Cl)c1 2.34

A: S=c1[nH]nnn1-c1ccc(Cl)cc1
B: S=c1[nH]nnn1-c1ccccc1I
Which has the higher logP, A or B ? Lab note: record the label of whichever item you select. B

Where do the numbers come from? From the SangsterLogP compilation.
